B1: LINE1-full (parent)
chain: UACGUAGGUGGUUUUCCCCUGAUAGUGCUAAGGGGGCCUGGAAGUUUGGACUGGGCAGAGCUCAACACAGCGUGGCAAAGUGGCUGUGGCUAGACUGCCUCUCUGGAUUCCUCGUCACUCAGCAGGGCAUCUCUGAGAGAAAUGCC

# Variants of: B1
# protocol-notes: self-cleavage, relative activity (ratio to wild type); higher = more cleavage; in vitro, sequencing; the parent is a self-cleaving ribozyme
Output true for self-cleavage not less than 1; output false otherwise.

Here's what some known entries look like.
alteration	qualitative-label
U5A A142G	false
G7U A138G	true
A50U U143A	true
A6G C38U	true

Challenge: API: above_or_equal(metric=self-cleavage, cutoff=1) for item C37U C146U
Response given: true

Data provenance: the RNAGym collection of RNA variant scans (doi:10.7554/elife.90254)
